# experimental-target: Telomerase reverse transcriptase (Homo sapiens)
# experimental-details: Inhibition of human recombinant telomerase activity in rabbit reticulocytes after 90 mins by telomerase assemblage gel electrophoresis
# Format: cell-based
This listing pairs compounds with measured pIC50.
pIC50 (log units): -log10 of the concentration in mol/L.

smiles-data: Cc1coc2c1C(=O)C(=O)c1c-2ccc2c1CCCC2(C)C
pIC50: 5.30

Here's the next entry for you.
Would you mind telling me what pIC50 value was observed for O=C1C(=O)c2ccccc2-c2ccccc21 ?
5.30

----------
# Tested on: PC-3
# experimental-details: Cytotoxicity against telomerase positive human PC3 cells after 96 hrs by SRB assay
# Assay type: functional, cell-based
# condition-details: PC-3, 96 h
endpoint: EC50 (nM)
Write it as a number; the unit nM goes unstated.

Give the reported EC50 for Cc1coc2c1C(=O)C(=O)c1c-2ccc2c1CCCC2(C)C [TANSHINONE IIA] (system: PC-3).
1200

----------
# Tested on: SAOS-2
# experimental-details: Cytotoxicity against telomerase negative human Saos2 cells after 96 hrs by SRB assay
# Type: functional, cell-based
# condition-details: SAOS-2, 96 h
endpoint: EC50

Hi! What's the reported EC50 for Cc1coc2c1C(=O)C(=O)c1c-2ccc2c1CCCC2(C)C on SAOS-2?
> 20 µM

----------
# experimental-target: Telomerase reverse transcriptase (Homo sapiens, UniProt O14746)
# Sequence (O14746 whole entry): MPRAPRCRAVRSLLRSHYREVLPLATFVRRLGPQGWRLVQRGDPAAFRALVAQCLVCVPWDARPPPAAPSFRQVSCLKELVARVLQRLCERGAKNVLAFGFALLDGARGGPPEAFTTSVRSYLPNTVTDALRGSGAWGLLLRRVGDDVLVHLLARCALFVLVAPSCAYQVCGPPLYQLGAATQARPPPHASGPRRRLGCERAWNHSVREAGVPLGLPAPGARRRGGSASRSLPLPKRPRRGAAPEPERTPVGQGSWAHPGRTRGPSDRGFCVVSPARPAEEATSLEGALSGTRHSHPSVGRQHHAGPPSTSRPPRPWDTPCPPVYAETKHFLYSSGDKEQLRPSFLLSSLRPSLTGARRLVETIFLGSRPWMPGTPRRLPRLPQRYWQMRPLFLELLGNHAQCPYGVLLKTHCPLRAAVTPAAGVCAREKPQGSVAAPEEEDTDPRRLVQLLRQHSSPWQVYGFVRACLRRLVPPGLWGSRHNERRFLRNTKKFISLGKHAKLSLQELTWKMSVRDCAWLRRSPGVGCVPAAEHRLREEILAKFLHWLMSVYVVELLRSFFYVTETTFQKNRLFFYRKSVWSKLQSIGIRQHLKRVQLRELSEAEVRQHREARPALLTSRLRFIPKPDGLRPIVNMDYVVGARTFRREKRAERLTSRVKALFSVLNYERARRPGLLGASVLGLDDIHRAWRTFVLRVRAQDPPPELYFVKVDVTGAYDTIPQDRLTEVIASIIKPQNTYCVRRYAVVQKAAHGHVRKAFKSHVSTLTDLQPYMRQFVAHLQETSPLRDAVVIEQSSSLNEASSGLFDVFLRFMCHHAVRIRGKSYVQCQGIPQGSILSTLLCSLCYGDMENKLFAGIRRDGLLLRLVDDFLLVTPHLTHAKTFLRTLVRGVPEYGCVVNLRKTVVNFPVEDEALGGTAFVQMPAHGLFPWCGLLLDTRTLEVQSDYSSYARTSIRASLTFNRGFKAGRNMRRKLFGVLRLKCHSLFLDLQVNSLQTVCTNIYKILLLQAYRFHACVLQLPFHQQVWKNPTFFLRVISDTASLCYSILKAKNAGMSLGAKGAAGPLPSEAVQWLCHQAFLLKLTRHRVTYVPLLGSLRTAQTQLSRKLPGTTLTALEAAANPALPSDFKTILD
# experimental-details: Inhibition of human recombinant telomerase activity in rabbit reticulocytes at 50 uM after 90 mins by telomerase assemblage gel electrophoresis
# Format: cell-based
Listed molecules paired with reported inhibition
Respond numerically; units are % and should not be typed.

Solved entries (count: 3):
smiles-data: C[C@H]1COC2=C1C(=O)C(=O)c1c2ccc2c1CCCC2(C)C
endpoint: inhibition
quantitative-readout: 75
//
smiles-data: Cc1coc2c1C(=O)C(=O)c1c-2ccc2c1CCCC2(C)C
endpoint: inhibition
quantitative-readout: 75
//
smiles-data: Cc1cccc2c1ccc1c3occ(C)c3c(=O)oc21
endpoint: inhibition
quantitative-readout: 25

Here's the next entry for you.
# get_value(readout='inhibition', item= Cc1coc2c1C(=O)C(=O)c1c-2ccc2c(C)cccc12 )
65

----------
# experimental-target: Telomerase reverse transcriptase (Homo sapiens, UniProt O14746)
# experimental-details: Inhibition of pre-assembled human recombinant telomerase activity in rabbit reticulocytes after 90 mins by gel electrophoresis method based direct primer extension assay
# Format: cell-based
Readings of IC50 for the listed compounds
Response body: numeric value in µM, unit text excluded.

smiles-data: Cc1coc2c1C(=O)C(=O)c1c-2ccc2c1CCCC2(C)C
quantitative-readout: 0.5

Query compound follows.
Reported IC50 for Telomerase reverse transcriptase (Homo sapiens, UniProt O14746), given O=C1C(=O)c2ccccc2-c2ccccc21 ?
0.5

These data points were gathered from ChEMBL document CHEMBL2157942.
